study target: haematopoietic prostaglandin D synthase (H-PGDS) (Homo sapiens, UniProt O60760)
Construct: Full length human H-PGDS cDNA (Invitrogen Ultimate ORF IOH13026) was amplified by PCR; 6-His (N); TEV protease cleavage site (N); made in house; host or cells: E. coli BL21 (DE3*)
Sequence (O60760 whole entry): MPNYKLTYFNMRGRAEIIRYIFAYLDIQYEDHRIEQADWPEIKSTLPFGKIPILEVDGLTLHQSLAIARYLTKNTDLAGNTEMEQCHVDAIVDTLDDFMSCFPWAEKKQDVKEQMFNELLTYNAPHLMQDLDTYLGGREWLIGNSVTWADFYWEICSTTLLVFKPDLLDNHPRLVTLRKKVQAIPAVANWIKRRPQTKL
experiment: H-PGDS RapidFire high throughput mass spectrometry assay (conversion of PGH2 to PGD2)
Type: biochemical
applied conditions: 10 nM H-PGDS, PGH2 formed in situ by COX-2 from arachidonic acid; four parameter curve fit; read-out: Potency Range (mean pIC50) (converted)
measurement label: IC50

[ask] // query IC50 value for entry `C[C@]1(O)C[C@H](NC(=O)c2cnc3nc(C4CC4)c(Cl)cc3c2)C1`
[reply] 10 to 79.4 nM

[ask] // query IC50 value for entry `CC(C)(O)[C@H]1CC[C@H](NC(=O)c2cnc3ccncc3c2)CC1`
[reply] 1260 to 10000 nM

[ask] // query IC50 value for entry `O=C(N[C@H]1CC[C@@](O)(C(F)F)CC1)c1cnc2nc(C3CC3)ccc2c1`
[reply] 100 to 1000 nM

[ask] // query IC50 value for entry `CC(C)(O)[C@H]1CC[C@H](NC(=O)c2cnc3nc(OCC(F)(F)F)ccc3c2)CC1`
[reply] 100 to 1000 nM
